Target: human CCR8 (human, UniProt P51685 1-355)
Test: cell-based or functional assay
assayEndpoint: hCCL1 (100 nM) residual response in %, Protocol #3, mAb 0.05 µg/mL (0.33 nM) (%)

>>> recordedvalue("anti-CCR8 mAb 2-10 (antibody, V domains shown) VH: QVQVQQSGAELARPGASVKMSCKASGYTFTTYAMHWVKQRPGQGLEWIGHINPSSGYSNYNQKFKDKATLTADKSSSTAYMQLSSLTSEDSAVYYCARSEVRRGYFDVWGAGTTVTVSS VL: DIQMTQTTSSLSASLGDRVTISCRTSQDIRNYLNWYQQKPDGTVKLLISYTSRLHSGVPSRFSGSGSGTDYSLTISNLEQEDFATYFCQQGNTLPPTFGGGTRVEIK")
76
>>> recordedvalue("anti-CCR8 mAb 2-11 (antibody, V domains shown) VH: EVQLQQSGPELVKPGASVKISCKASVYSFTGSYMHWVKQSHVKSLEWIGRINPYNGATSYNQNFKDKASLTVDKSSSTAYMELHSLTSEDSAVYYCATTLLRLLDYWGQGTTLTVSS VL: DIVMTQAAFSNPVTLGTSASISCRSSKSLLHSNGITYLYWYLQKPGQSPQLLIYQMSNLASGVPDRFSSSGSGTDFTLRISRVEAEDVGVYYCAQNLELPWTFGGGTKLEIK")
96
